Source listed as paper PMC7126984.

# assay_details: MTT cytotoxicity test in TE-671 cells
# test_conditions: human, TE-671 medulloblastoma cells
Listing: CC50 at 48 h of selected compounds
Kindly provide the numeric value in µg/mL only, without the unit symbol.

# example entries with known answers
CC(C)=CC[C@@H](O)C1=CC(=O)c2c(O)ccc(O)c2C1=O [Shikonin, shikonin] = 1750
O=C1c2cccc(O)c2C(=O)c2c(O)cc(CO)cc21 [Aloe-emodin] = 2630

Kindly review the next compound as well.
The value of CC50 at 48 h measured for the compound COc1ccc([C@@H]2CC(=O)c3c(O)cc(O)cc3O2)cc1O [Hesperetin, hesperetin] turned out to be 574

----------
# System: Japanese encephalitis virus (JEV) strain T1P1
# assay_details: Plaque reduction assay, JEV in TE-671 cells
# test_conditions: JEV, TE-671 cells
Listing: TI (ratio of CC50 to IC50) of selected compounds
Number, no unit, nothing else.

COc1ccc([C@@H]2CC(=O)c3c(O)cc(O)cc3O2)cc1O = 159

The compound `CC(C)=CC[C@@H](O)C1=CC(=O)c2c(O)ccc(O)c2C1=O` , tested on Japanese encephalitis virus (JEV) strain T1P1, showed TI (ratio of CC50 to IC50) of 835.2

The compound `O=C1c2cccc(O)c2C(=O)c2c(O)cc(CO)cc21` , tested on Japanese encephalitis virus (JEV) strain T1P1, showed TI (ratio of CC50 to IC50) of 1743

----------
# assay_details: MTT cytotoxicity test in HL-CZ cells
# test_conditions: human, HL-CZ promonocyte cells
Listing: CC50 at 48 h of selected molecules

COC(=O)C1=CCCN(C)C1 = > 3000 µg/mL
CC(C)=CC[C@@H](O)C1=CC(=O)c2c(O)ccc(O)c2C1=O = > 3000 µg/mL

Kindly review the next molecule as well.
The value of CC50 at 48 h measured for the molecule `O=C1c2cccc(O)c2C(=O)c2c(O)cc(CO)cc21` turned out to be 2880 µg/mL
